tested on: Normal human foreskin fibroblasts (HFF); settings: read-out: HFF (EC50 Ave) ML; HFF, ML (monolayer)
Primed or numbered codes have the meaning given here. * marks the point of attachment. 10Ca‑PXL = paclitaxel conjugated at C10 via a carbamate; 3Am‑VBL″ = vinblastine conjugate; PEG(11) = PEG(11) linker; DMAB = not defined here; 3Am = not defined here; PEG(13) = PEG13 linker; Boc = CC(C)(C)OC(=O)*; Piv = CC(C)(C)C(=O)*; VBL = vinblastine
OBSERVATION_TYPE: EC50

// solved cases for EC50 follow
[
  {
    "SUBSTANCE": "BOC-YI(phospho)YGSFK(BOC)-PEG(11)-3Am-VBL (Boc-YIYGSFK(Boc)-{PEG(11)-3Am-VBL}; reading uncertain; also: phospho at I2 as written: I(phospho), printed as BOC-YI(phospho)YGSFK(BOC)-PEG(11)-3Am-VBL)",
    "OBSERVATION_TYPE": "EC50",
    "RESULT": "20 to 100 nM"
  },
  {
    "SUBSTANCE": "H-YIYGSFK-PEG(11)-3Am-VBL (H-YIYGSFK-{PEG(11)-3Am-VBL}; reading uncertain)",
    "OBSERVATION_TYPE": "EC50",
    "RESULT": "20 to 100 nM"
  },
  {
    "SUBSTANCE": "Ac-RPRTSSF-PEG(11)-3Am-VBL (N-acetyl; PEG(11) linker; vinblastine conjugate)",
    "OBSERVATION_TYPE": "EC50",
    "RESULT": "20 to 100 nM"
  },
  {
    "SUBSTANCE": "Ac-EYIYGSFR-PEG(13)-10Ca-PXL (N-acetyl, PEG13, paclitaxel conjugate)",
    "OBSERVATION_TYPE": "EC50",
    "RESULT": "> 100 nM"
  },
  {
    "SUBSTANCE": "Pv-GRPRTSSFAEG-PEG(13)-10Ca-PXL (Piv-GRPRTSSFAEG-{PEG(13)-10Ca‑PXL}; also: TFA salt)",
    "OBSERVATION_TYPE": "EC50",
    "RESULT": "> 100 nM"
  }
]

Here is another substance to look at.
[in] Recorded EC50 for Pv-GRPRTSSFAE(DMAB)G-3Am-VBL (Piv-GRPRTSSFAE(DMAB)G-{3Am‑VBL″}; not fully specified; reading uncertain) with Normal human foreskin fibroblasts (HFF), please?
[out] > 100 nM

----------
test system: HT-29 cells; conditions: read-out: HT29 (EC50 Ave) SA; HT29, SA (soft agar)
Primed or numbered codes have the meaning given here. * marks the point of attachment. 10Ca = carbamate linkage conjugating the peptide-PEG to paclitaxel at C10; 10Ca‑PXL = paclitaxel conjugated at C10 via a carbamate; 10Ca‑PXL″ = paclitaxel attached at C10 via carbamate; 3Am‑VBL = vinblastine (VBL) conjugate; PEG(13)″ = PEG(13) linker; PEG(11) = PEG(11) linker; Cbz = O=C(OCc1ccccc1)*; PEG(13) = PEG13 linker; Piv = CC(C)(C)C(=O)*; OBn = c1ccc(CO*)cc1; PXL = paclitaxel
OBSERVATION_TYPE: EC50

[
  {
    "SUBSTANCE": "Pv-GRPRTSSFAE(Bzl)G-PEG(13)-10Ca-PXL (Piv-GRPRTSSFAE(OBn)G-{PEG(13)-10Ca‑PXL″})",
    "EC50": "> 100 nM"
  },
  {
    "SUBSTANCE": "Pv-E(Bzl)YIYGSFK(CBz)-PEG(13)-10Ca-PXL (Piv-E(OBn)YIYGSFK(Cbz)-{PEG(13)″-10Ca-PXL}; also: TFA salt)",
    "EC50": "> 100 nM"
  },
  {
    "SUBSTANCE": "BOC-E(Bzl)YIFGSFK(BOC)-PEG(11)-3Am-VBL",
    "EC50": "20 to 100 nM"
  },
  {
    "SUBSTANCE": "Pv-E(DMAB)YIYGSFR-PEG(11)-3Am-VBL (EYIYGSFR)",
    "EC50": "20 to 100 nM"
  },
  {
    "SUBSTANCE": "BOC-EYIYGSFK(BOC)-PEG(11)-3Am-VBL (N-BOC; BOC side chain; PEG(11); vinblastine conjugate)",
    "EC50": "> 100 nM"
  }
]

[in] Look up EC50 for this substance: Pv-YIFGSFR-PEG(13)-10Ca-PXL (Piv-YIFGSFR-{PEG(13)″-10Ca‑PXL}; also: TFA salt)
[out] > 100 nM

[in] Thanks! And CBz-RPRTSSF-PEG(13)-10Ca-PXL x (N-CBz; PEG(13) linker; paclitaxel conjugate; salt) ?
[out] > 100 nM

[in] Thanks! And CBz-E(Bzl)YIFGSFK-PEG(11)-3Am-VBL (CBz-Glu(Bzl) N-terminal; PEG(11); vinblastine conjugate) ?
[out] > 100 nM

[in] Thanks! And Pv-YIYGSFR-PEG(11)-3Am-VBL (Piv-YIYGSFR-{PEG(11)-3Am‑VBL}) ?
[out] > 100 nM

[in] Thanks! And Pv-EYIYGSFR-PEG(13)-10Ca-PXL (Piv-EYIYGSFR-{PEG(13)-10Ca‑PXL}) ?
[out] > 100 nM

[in] Thanks! And BOC-YIYGSFR-PEG(11)-3Am-VBL (N-BOC; PEG(11) linker; vinblastine conjugate) ?
[out] > 100 nM

[in] Thanks! And Pv-GRPRAAAFAEG-PEG(13)-10Ca-PXL (Piv-GRPRAAAFAEG-{PEG(13)-10Ca‑PXL}; also: 2 TFA salt) ?
[out] 20 to 100 nM

[in] Thanks! And Ac-EYIYGSFR-PEG(11)-3Am-VBL (N-acetyl, PEG11, vinblastine conjugate) ?
[out] > 100 nM

[in] Thanks! And "CBz-GRPRTSSFAE(Bzl)G-3Am-VBL" ?
[out] 20 to 100 nM

[in] Thanks! And BOC-RPRTSSF-PEG(13)-10Ca-PXL (N-BOC; PEG(13) linker; paclitaxel conjugate) ?
[out] > 100 nM

[in] Thanks! And Ac-RPRTSSF-PEG(13)-10Ca-PXL (N-acetyl; PEG(13) linker; paclitaxel conjugate) ?
[out] 20 to 100 nM

[in] Thanks! And CBz-RPRTSSF-PEG(13)-10Ca-PXL (N-CBz; PEG(13) linker; paclitaxel conjugate) ?
[out] 20 to 100 nM

[in] Thanks! And Ac-YIYGSFR-PEG(11)-3Am-VBL (N-acetyl; PEG(11) linker; vinblastine conjugate) ?
[out] > 100 nM

[in] Thanks! And Ac-EYIyGSFK-PEG(13)-10Ca-PXL (EYIYGSFK; not fully specified) ?
[out] > 100 nM

----------
test system: Normal human foreskin fibroblasts (HFF); details: read-out: HFF (EC50 Ave) ML; HFF, ML (monolayer)
Primed or numbered codes have the meaning given here. * marks the point of attachment. 10Ca‑PXL = paclitaxel conjugated at C10 via a carbamate; PEG(29) = PEG(29) linker; 3Am = not defined here; PEG(13) = PEG13 linker; Piv = CC(C)(C)C(=O)*; VBL = vinblastine
Measured EC50 accompanies every entry in the list below.

// solved cases for EC50 follow
[
  {
    "SUBSTANCE": "BOC-EYIYGSFK(BOC)-PEG(11)-3Am-VBL (N-BOC; BOC side chain; PEG(11); vinblastine conjugate)",
    "RESULT": "> 100 nM"
  },
  {
    "SUBSTANCE": "BOC-GIYWHHY-PEG(29)-3Am-VBL (N-BOC; PEG(29) linker; vinblastine conjugate)",
    "RESULT": "> 100 nM"
  },
  {
    "SUBSTANCE": "CBz-YIFGSFK-PEG(11)-3Am-VBL (N-CBz; PEG(11) linker; vinblastine conjugate)",
    "RESULT": "> 100 nM"
  },
  {
    "SUBSTANCE": "CBz-GRPRTSSFAE(Bzl)G-3Am-VBL",
    "RESULT": "20 to 100 nM"
  },
  {
    "SUBSTANCE": "CBz-RPRTSSF-PEG(13)-10Ca-PXL x (N-CBz; PEG(13) linker; paclitaxel conjugate; salt)",
    "RESULT": "> 100 nM"
  },
  {
    "SUBSTANCE": "H-GIYWHHY-PEG(29)-3Am-VBL (H-GIYWHHY-{PEG(29)-3Am-VBL}; reading uncertain)",
    "RESULT": "> 100 nM"
  }
]

[in] Recorded EC50 for Pv-EYIYGSFR-PEG(13)-10Ca-PXL (Piv-EYIYGSFR-{PEG(13)-10Ca‑PXL}) with Normal human foreskin fibroblasts (HFF), please?
[out] > 100 nM
